System: Staphylococcus aureus ATCC 10537
Assay: Antibacterial activity, MIC
Format: cell-based
Details: ATCC10537, ATCC 10537, agar two-fold dilution, 37° C., 20 hours, read-out: MIC
Protocol: Also, the in vitro antibacterial activity was determined by the by a two-fold dilution method as described below: That is, the two-fold serial dilutions of the compound were made dispersed in Muller-Hinton agar medium. 2 μl of standard test strain which had the 10^7 CFU per ml was inoculated on the medium, and was incubated at 37° C. for 20 hours.
EXPERIMENTAL ENDPOINT: MIC (µg/mL)
Number only, in µg/mL; omit the unit.

CCCC[n+]1c(N)cc(N)nc1SCC1=C(C(=O)[O-])N2C(=O)C(NC(=O)/C(=N\OC(C)(C)C(=O)O)c3nsc(N)n3)C2SC1 (stereo not drawn) [Compound I-29]: 4
CO/N=C(\C(=O)NC1C(=O)N2C(C(=O)[O-])=C(CSc3nc(N)cc(N)[n+]3C)CSC12)c1csc(N)n1 (stereo not drawn) [Compound I-10]: 0.25

Pending molecule:
Request the reported MIC associated with Cc1c(N)nc(SCC2=C(C(=O)[O-])N3C(=O)C(NC(=O)/C(=N\OC(C)(C)C(=O)O)c4csc(N)n4)C3SC2)[n+](C)c1N (stereo not drawn) [Compound I-30]
2
